target: HLA-A*02:01 (Homo sapiens, UniProt P04439, D140Y/D185E/D98H/E176V/E277Q/G131W/G231S/I119V/I121R/I166T/I218V/L300P/L318F/N151K/N90K/P208A/P217A/Q86G/Q94H/R138H/R169H/T345S); experiment: MHC binding assay: UV-ligand exchange with β2m ELISA; settings: peptide exchange yield, binding to HLA-A*02:01

substance | Peptide exchange
35 (LLRFSQDNA; listed as Homo sapiens) [compound 35] | +++ (≥50 = +++)
56 (ALVEVTEHV; listed as Homo sapiens) [compound 56] | ++ (≥20% = ++)
58 (LILESIPVV; listed as Homo sapiens) [compound 58] | ++ (≥20% = ++)
25 (LLPPPPPPA; listed as Homo sapiens) [compound 25] | +++ (≥50 = +++)
10 (SLDENSDQQV; listed as Homo sapiens) [compound 10] | +++ (≥50 = +++)
19 (GLAPFLLNAV; listed as Homo sapiens) [compound 19] | +++ (≥50 = +++)
24 (LLFAGTMTV; listed as Homo sapiens) [compound 24] | ++ (≥20% = ++)
54 (YQDLLNVKM; listed as Homo sapiens) [compound 54] | +++ (≥50 = +++)
8 (ALLDGGSEAYWRV; listed as Homo sapiens) [compound 8] | +++ (≥50 = +++)
13 (SLSPVILGV; listed as Homo sapiens) [compound 13] | ++++ (≥75% = ++++)
29 (SLDGTELQL; listed as Homo sapiens) [compound 29] | +++ (≥50 = +++)
72 (FLPPAQVTV; listed as Homo sapiens) [compound 72] | ++ (≥20% = ++)
31 (VLPKLYVKL; listed as Homo sapiens) [compound 31] | ++ (≥20% = ++)
93 (VLINTSVTL; listed as Homo sapiens) [compound 93] | +++ (≥50 = +++)
55 (GAIDLLHNV; listed as Homo sapiens) [compound 55] | ++ (≥20% = ++)
47 (VLASGFLTV; listed as Homo sapiens) [compound 47] | ++++ (≥75% = ++++)
26 (MLAEKLLQA; listed as Homo sapiens) [compound 26] | + (≥10% = +)
51 (KLFGHLTSA; listed as Homo sapiens) [compound 51] | ++ (≥20% = ++)
78 (KVANIIAEV; listed as Homo sapiens) [compound 78] | ++ (≥20% = ++)
15 (LLANGVYAA; listed as Homo sapiens) [compound 15] | + (≥10% = +)

###

target: HLA-A*02:01 (Homo sapiens, UniProt P04439, D140Y/D185E/D98H/E176V/E277Q/G131W/G231S/I119V/I121R/I166T/I218V/L300P/L318F/N151K/N90K/P208A/P217A/Q86G/Q94H/R138H/R169H/T345S); test: MHC binding assay: UV-ligand exchange with β2m ELISA; conditions: peptide exchange yield, binding to HLA-A*02:01

substance | Peptide exchange
6 (LLSGDLIFL; listed as Homo sapiens) [compound 6] | +++ (≥50 = +++)
87 (FLDNGPKTI; listed as Homo sapiens) [compound 87] | +++ (≥50 = +++)

###

target: HLA-A*02:01 (Homo sapiens, UniProt P04439, D140Y/D185E/D98H/E176V/E277Q/G131W/G231S/I119V/I121R/I166T/I218V/L300P/L318F/N151K/N90K/P208A/P217A/Q86G/Q94H/R138H/R169H/T345S); assay: MHC binding assay: UV-ligand exchange with β2m ELISA; conditions: peptide exchange yield, binding to HLA-A*02:01

substance | Peptide exchange
38 (IAAIRGFLV; listed as Homo sapiens) [compound 38] | +++ (≥50 = +++)
79 (GQDVGRYQV; listed as Homo sapiens) [compound 79] | ++ (≥20% = ++)
85 (NIIELVHQV; listed as Homo sapiens) [compound 85] | ++++ (≥75% = ++++)
37 (YTQPFSHYGQAL; listed as Homo sapiens) [compound 37] | +++ (≥50 = +++)
1 (STYGGGLSV; listed as Homo sapiens) [compound 1] | +++ (≥50 = +++)
44 (ATGNDRKEAAENSL; listed as Homo sapiens) [compound 44] | +++ (≥50 = +++)
53 (VVVTGLTLV; listed as Homo sapiens) [compound 53] | ++ (≥20% = ++)
21 (IVREFLTAL; listed as Homo sapiens) [compound 21] | +++ (≥50 = +++)
49 (GLMKDIVGA; listed as Homo sapiens) [compound 49] | +++ (≥50 = +++)
84 (SLAESLDQA; listed as Homo sapiens) [compound 84] | +++ (≥50 = +++)
76 (KVADYIPQL; listed as Homo sapiens) [compound 76] | +++ (≥50 = +++)
2 (SLYNLGGSKRISI; listed as Homo sapiens) [compound 2] | ++++ (≥75% = ++++)
9 (HLIAEIHTA; listed as Homo sapiens) [compound 9] | +++ (≥50 = +++)
18 (FLLDQVQLGL; listed as Homo sapiens) [compound 18] | +++ (≥50 = +++)
11 (ALWLPTDSATV; listed as Homo sapiens) [compound 11] | +++ (≥50 = +++)
12 (GLASRILDA; listed as Homo sapiens) [compound 12] | +++ (≥50 = +++)
82 (HLLGHLEQA; listed as Homo sapiens) [compound 82] | +++ (≥50 = +++)
40 (GLAFSLYQA; listed as Homo sapiens) [compound 40] | ++ (≥20% = ++)
70 (FVLDTSESV; listed as Homo sapiens) [compound 70] | +++ (≥50 = +++)
91 (KLIDDVHRL; listed as Homo sapiens) [compound 91] | ++++ (≥75% = ++++)
34 (SLVSEQLEPA; listed as Homo sapiens) [compound 34] | +++ (≥50 = +++)
67 (SMNGGVFAV; listed as Homo sapiens) [compound 67] | ++ (≥20% = ++)
77 (VLVPYEPPQV; listed as Homo sapiens) [compound 77] | ++ (≥20% = ++)
5 (NLMASQPQL; listed as Homo sapiens) [compound 5] | +++ (≥50 = +++)
69 (GLLVGSEKVTM; listed as Homo sapiens) [compound 69] | +++ (≥50 = +++)
30 (SLNGNQVTV; listed as Homo sapiens) [compound 30] | + (≥10% = +)
28 (SLDGFTIQV; listed as Homo sapiens) [compound 28] | ++ (≥20% = ++)
43 (KVVGKDYLL; listed as Homo sapiens) [compound 43] | + (≥10% = +)
22 (KLNDTYVNV; listed as Homo sapiens) [compound 22] | +++ (≥50 = +++)
62 (ALYEYQPLQI; listed as Homo sapiens) [compound 62] | ++ (≥20% = ++)
63 (LAYTLGVKQL; listed as Homo sapiens) [compound 63] | +++ (≥50 = +++)
60 (VVMEELLKV; listed as Homo sapiens) [compound 60] | ++ (≥20% = ++)
57 (GLAPNTPGKA; listed as Homo sapiens) [compound 57] | +++ (≥50 = +++)
92 (SILRHVAEV; listed as Homo sapiens) [compound 92] | ++ (≥20% = ++)
23 (KLSDSATYL; listed as Homo sapiens) [compound 23] | +++ (≥50 = +++)
48 (SMHQMLDQTL; listed as Homo sapiens) [compound 48] | ++ (≥20% = ++)
64 (GLTDVIRDV; listed as Homo sapiens) [compound 64] | ++++ (≥75% = ++++)
90 (SIYEYYHAL; listed as Homo sapiens) [compound 90] | +++ (≥50 = +++)
46 (YTAQIGADIAL; listed as Homo sapiens) [compound 46] | +++ (≥50 = +++)

Source of measurements: patent US12351616B2
